# experimental-target: UniProt:P08183
# Sequence (P08183 whole entry): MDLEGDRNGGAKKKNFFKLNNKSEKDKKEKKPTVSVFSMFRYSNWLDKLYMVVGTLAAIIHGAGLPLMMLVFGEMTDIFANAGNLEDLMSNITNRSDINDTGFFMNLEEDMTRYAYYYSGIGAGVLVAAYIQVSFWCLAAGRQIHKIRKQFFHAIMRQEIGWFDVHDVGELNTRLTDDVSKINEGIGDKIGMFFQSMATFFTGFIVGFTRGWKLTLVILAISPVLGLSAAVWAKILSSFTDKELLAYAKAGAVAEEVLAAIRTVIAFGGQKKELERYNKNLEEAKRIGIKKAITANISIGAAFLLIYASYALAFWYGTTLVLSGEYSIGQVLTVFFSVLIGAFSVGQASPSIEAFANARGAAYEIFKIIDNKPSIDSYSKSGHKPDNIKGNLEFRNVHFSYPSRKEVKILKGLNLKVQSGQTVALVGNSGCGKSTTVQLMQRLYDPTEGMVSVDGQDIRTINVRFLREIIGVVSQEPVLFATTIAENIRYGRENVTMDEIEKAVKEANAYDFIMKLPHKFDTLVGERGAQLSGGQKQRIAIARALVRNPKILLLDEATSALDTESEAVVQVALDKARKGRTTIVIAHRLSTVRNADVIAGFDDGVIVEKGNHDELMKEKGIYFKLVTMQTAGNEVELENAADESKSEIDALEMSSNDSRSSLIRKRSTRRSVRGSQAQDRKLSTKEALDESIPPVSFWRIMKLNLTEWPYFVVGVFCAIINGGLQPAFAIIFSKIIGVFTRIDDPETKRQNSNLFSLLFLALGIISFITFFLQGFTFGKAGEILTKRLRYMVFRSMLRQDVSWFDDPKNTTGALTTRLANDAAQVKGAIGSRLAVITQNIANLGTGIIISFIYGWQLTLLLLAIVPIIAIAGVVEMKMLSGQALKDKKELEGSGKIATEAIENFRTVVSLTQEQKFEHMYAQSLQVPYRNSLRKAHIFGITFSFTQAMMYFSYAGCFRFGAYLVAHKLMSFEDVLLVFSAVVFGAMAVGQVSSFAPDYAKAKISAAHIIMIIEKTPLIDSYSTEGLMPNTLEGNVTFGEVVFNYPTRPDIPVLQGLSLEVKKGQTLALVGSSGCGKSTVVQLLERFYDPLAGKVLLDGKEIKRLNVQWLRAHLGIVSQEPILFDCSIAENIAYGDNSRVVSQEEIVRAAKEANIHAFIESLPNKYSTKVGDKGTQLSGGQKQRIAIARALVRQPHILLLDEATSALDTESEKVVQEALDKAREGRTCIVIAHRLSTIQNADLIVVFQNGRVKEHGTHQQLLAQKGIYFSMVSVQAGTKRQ
# assay-summary: Inhibition of ABCB1 in human SW620/AD300 cells assessed as potentiation of paclitaxel-induced cytotoxicity by measuring fold reduction in paclitaxel IC50 at 2 uM preincubated for 4 hrs followed by paclitaxel addition measured after 72 hrs by MTT assay
# Type: cell-based
Recorded fold change (FC) values for a group of compounds are listed next.
measured-endpoint: fold change (FC)

# item-smiles, measured-result
measured = [
    ("N#Cc1c(Nc2cccc(C(F)(F)F)c2)nc(SCc2cn(Cc3ccccc3Cl)nn2)nc1-c1ccccc1", 5.84),
    ("N#Cc1c(Nc2cccc([N+](=O)[O-])c2)nc(SCc2cn(Cc3ccccc3Cl)nn2)nc1-c1ccccc1", 5.68),
    ("COc1cc(-c2nc(SCc3cn(Cc4ccccc4Cl)nn3)nc(Nc3ccc(C)cc3)c2C#N)cc(OC)c1OC", 34.08),
    ("Cc1ccc(Nc2nc(SCc3cn(Cc4ccccc4Cl)nn3)nc(-c3ccc(C)cc3)c2C#N)cc1", 17.04),
    ("N#Cc1c(Nc2cccc(Cl)c2)nc(SCc2cn(Cc3ccccc3Cl)nn2)nc1-c1ccccc1", 21.52),
    ("Cc1ccc(Nc2nc(SCc3cn(Cc4ccccc4Cl)nn3)nc(-c3ccc(Br)cc3)c2C#N)cc1", 3.61),
    ("Cc1ccc(Cn2cc(CSc3nc(Nc4ccccc4C)c(C#N)c(-c4ccccc4)n3)nn2)cc1", 4.44),
    ("Cc1ccc(Nc2nc(SCc3cn(Cc4ccc(F)cc4)nn3)nc(-c3ccccc3)c2C#N)cc1", 1.03),
    ("Cc1cccc(Nc2nc(SCc3cn(Cc4ccccc4Cl)nn3)nc(-c3ccccc3)c2C#N)c1", 8.7),
    ("N#Cc1c(Nc2ccccc2F)nc(SCc2cn(Cc3ccc(Cl)cc3)nn2)nc1-c1ccccc1", 1.35),
    ("Cc1ccc(Nc2nc(SCc3cn(Cc4ccccc4Cl)nn3)nc(-c3ccc(C(C)C)cc3)c2C#N)cc1", 51.12),
    ("Cc1ccc(Nc2nc(SCc3cn(Cc4ccccc4Cl)nn3)nc(-c3ccccc3)c2C#N)cc1", 3.58),
    ("Cc1ccc(Nc2nc(SCc3cn(Cc4ccccc4Cl)nn3)nc(-c3ccc(Cl)cc3)c2C#N)cc1", 5.31),
    ("Cc1ccccc1Nc1nc(SCc2cn(Cc3ccccc3Cl)nn2)nc(-c2ccccc2)c1C#N", 5.6),
    ("Cc1ccccc1Nc1nc(SCc2cn(Cc3ccc(Cl)cc3)nn2)nc(-c2ccccc2)c1C#N", 136.33),
    ("C#CCSc1nc(Nc2ccc(OC)cc2)c(C#N)c(-c2ccccc2)n1", 1.92),
    ("Cc1ccc(Cn2cc(CSc3nc(Nc4ccc(C)cc4)c(C#N)c(-c4ccccc4)n3)nn2)cc1", 4.35),
    ("C#CCSc1nc(Nc2cccc(Cl)c2)c(C#N)c(-c2ccccc2)n1", 1.36),
    ("N#Cc1c(Nc2ccccc2F)nc(SCc2cn(Cc3ccccc3Cl)nn2)nc1-c1ccccc1", 8.7),
    ("C#CCSc1nc(Nc2ccccc2Cl)c(C#N)c(-c2ccccc2)n1", 1.32),
    ("COc1ccc(Nc2nc(SCc3cn(Cc4ccccc4Cl)nn3)nc(-c3ccccc3)c2C#N)cc1", 6.7),
    ("COc1ccccc1Nc1nc(SCc2cn(Cc3ccccc3Cl)nn2)nc(-c2ccccc2)c1C#N", 2.29),
    ("Cc1ccc(Cn2cc(CSc3nc(Nc4ccccc4F)c(C#N)c(-c4ccccc4)n3)nn2)cc1", 1),
    ("C#CCSc1nc(Nc2ccc(Cl)cc2)c(C#N)c(-c2ccccc2)n1", 1.64),
    ("Cc1ccc(Nc2nc(SCc3cn(Cc4ccc(Cl)cc4)nn3)nc(-c3ccccc3)c2C#N)cc1", 8.7),
    ("Cc1ccc(Cn2cc(CSc3nc(Nc4ccccc4Cl)c(C#N)c(-c4ccccc4)n3)nn2)cc1", 1.09),
    ("N#Cc1c(Nc2ccc(F)cc2)nc(SCc2cn(Cc3ccccc3Cl)nn2)nc1-c1ccccc1", 1.01),
    ("N#Cc1c(Nc2ccccc2)nc(SCc2cn(Cc3ccccc3Cl)nn2)nc1-c1ccccc1", 7.86),
    ("C#CCSc1nc(Nc2cccc(C(F)(F)F)c2)c(C#N)c(-c2ccccc2)n1", 1.2),
    ("N#Cc1c(Nc2ccc(Cl)cc2)nc(SCc2cn(Cc3ccccc3Cl)nn2)nc1-c1ccccc1", 2.02),
    ("N#Cc1c(Nc2ccccc2Cl)nc(SCc2cn(Cc3ccccc3Cl)nn2)nc1-c1ccccc1", 24.06),
]

The measurements presented in this section are drawn from ChEMBL document CHEMBL4130548.
